Target: Serine/threonine-protein kinase B-raf (Homo sapiens, UniProt P15056, V600E)
Sequence (P15056 2-766 V600E limits assumed): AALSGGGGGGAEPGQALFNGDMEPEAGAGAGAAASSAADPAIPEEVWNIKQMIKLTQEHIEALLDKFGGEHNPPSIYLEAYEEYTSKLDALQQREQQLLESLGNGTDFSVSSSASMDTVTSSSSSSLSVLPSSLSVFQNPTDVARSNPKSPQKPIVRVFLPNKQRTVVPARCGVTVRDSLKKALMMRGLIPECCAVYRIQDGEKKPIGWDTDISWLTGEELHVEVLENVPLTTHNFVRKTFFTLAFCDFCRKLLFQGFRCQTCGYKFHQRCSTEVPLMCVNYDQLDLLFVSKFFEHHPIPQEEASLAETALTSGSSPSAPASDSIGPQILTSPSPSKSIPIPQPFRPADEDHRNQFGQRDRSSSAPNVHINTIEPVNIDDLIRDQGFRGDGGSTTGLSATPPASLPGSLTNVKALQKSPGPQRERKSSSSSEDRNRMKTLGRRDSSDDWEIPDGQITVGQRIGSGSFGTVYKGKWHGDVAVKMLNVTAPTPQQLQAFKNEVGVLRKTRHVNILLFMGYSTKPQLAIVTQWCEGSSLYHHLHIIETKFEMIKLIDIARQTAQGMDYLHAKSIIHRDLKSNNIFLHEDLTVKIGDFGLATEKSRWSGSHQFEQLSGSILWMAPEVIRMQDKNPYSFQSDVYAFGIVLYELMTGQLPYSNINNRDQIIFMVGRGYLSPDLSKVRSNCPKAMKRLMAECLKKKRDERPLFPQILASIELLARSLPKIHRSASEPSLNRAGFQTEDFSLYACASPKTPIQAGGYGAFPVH
Experiment: Inhibition of full length B-Raf V600E mutant (unknown origin)
readout: IC50 (nM)

smiles: CCCS(=O)(=O)Nc1ccc(F)c(C(=O)Nc2cnc3[nH]c(-c4ccc(Cl)cc4)cc3c2)c1F
target-or-test-system: Serine/threonine-protein kinase B-raf (Homo sapiens, UniProt P15056, V600E)
unit-spec: nM
IC50: 2.4
--
smiles: CCCS(=O)(=O)Nc1ccc(F)c(C(=O)Nc2cnc3[nH]c(-c4ccc(Cl)c(Cl)c4)nc3c2)c1F
target-or-test-system: Serine/threonine-protein kinase B-raf (Homo sapiens, UniProt P15056, V600E)
unit-spec: nM
IC50: 1.5
--
smiles: CCCS(=O)(=O)Nc1ccc(F)c(C(=O)Nc2cnc3[nH]c(-c4ccncc4)nc3c2)c1F
target-or-test-system: Serine/threonine-protein kinase B-raf (Homo sapiens, UniProt P15056, V600E)
unit-spec: nM
IC50: 3.2
--
smiles: CCCS(=O)(=O)Nc1ccc(F)c(C(=O)Nc2cnc3[nH]c(-c4ccc(C(F)(F)F)cc4)nc3c2)c1F
target-or-test-system: Serine/threonine-protein kinase B-raf (Homo sapiens, UniProt P15056, V600E)
unit-spec: nM
IC50: 1.4
--
smiles: CCCS(=O)(=O)Nc1ccc(F)c(C(=O)Nc2cnc3[nH]c(-c4ccc(F)c(F)c4)nc3c2)c1F
target-or-test-system: Serine/threonine-protein kinase B-raf (Homo sapiens, UniProt P15056, V600E)
unit-spec: nM
IC50: 3.4
--
smiles: CCCS(=O)(=O)Nc1ccc(F)c(C(=O)Nc2cnc3[nH]c(-c4ccc(Br)cc4)nc3c2)c1F
target-or-test-system: Serine/threonine-protein kinase B-raf (Homo sapiens, UniProt P15056, V600E)
unit-spec: nM
IC50: 2.2
--
smiles: CCCS(=O)(=O)Nc1ccc(F)c(C(=O)Nc2cnc3[nH]c(-c4ccc(S(C)(=O)=O)cc4)nc3c2)c1F
target-or-test-system: Serine/threonine-protein kinase B-raf (Homo sapiens, UniProt P15056, V600E)
unit-spec: nM
IC50: 1.4
--
smiles: CCCS(=O)(=O)Nc1ccc(F)c(C(=O)Nc2cnc3[nH]c(-c4ccc(OC(F)(F)F)cc4)nc3c2)c1F
target-or-test-system: Serine/threonine-protein kinase B-raf (Homo sapiens, UniProt P15056, V600E)
unit-spec: nM
IC50: 2.5
--
smiles: CCCS(=O)(=O)Nc1ccc(F)c(C(=O)Nc2cnc3[nH]c(-c4ccc(C#N)cc4)nc3c2)c1F
target-or-test-system: Serine/threonine-protein kinase B-raf (Homo sapiens, UniProt P15056, V600E)
unit-spec: nM
IC50: 2.7
--
smiles: CCCS(=O)(=O)Nc1ccc(F)c(C(=O)Nc2cnc3[nH]c(-c4ccccc4)cc3c2)c1F
target-or-test-system: Serine/threonine-protein kinase B-raf (Homo sapiens, UniProt P15056, V600E)
unit-spec: nM
IC50: 1

A = CCCS(=O)(=O)Nc1ccc(F)c(C(=O)Nc2cnc3[nH]c(-c4ccc(F)cc4)cc3c2)c1F
B = CCCS(=O)(=O)Nc1ccc(F)c(C(=O)Nc2cnc3cc(-c4ccc(Cl)cc4)nn3c2)c1F
C = CCCS(=O)(=O)Nc1ccc(F)c(C(=O)Nc2cnc3[nH]c(-c4cccc(F)c4)nc3c2)c1F
D = CCCS(=O)(=O)Nc1ccc(F)c(C(=O)Nc2cnc3[nH]c(C4CCC4)nc3c2)c1F
E = CCCS(=O)(=O)Nc1ccc(F)c(C(=O)Nc2cnc3[nH]c(-c4cccc(Br)c4)nc3c2)c1F
Sort entries by IC50 from minimum to maximum value. Answer by listing the labels in the order asked for.
E, A, C, B, D

* * *

Target: Serine/threonine-protein kinase B-raf (Homo sapiens, UniProt P15056, V600E)
Assay: Inhibition of B-Raf V600E mutant in human Malme-3M cells assessed as basal ERK phosphorylation
Assay type: cell-based
readout: IC50 (µM)

smiles: CCCS(=O)(=O)Nc1ccc(F)c(C(=O)Nc2cnc3[nH]c(-c4cccc(C(F)(F)F)c4)nc3c2)c1F
unit-spec: µM
IC50: 0.113
//
smiles: CCCS(=O)(=O)Nc1ccc(F)c(C(=O)Nc2cnc3[nH]c(C(C)(C)C)nc3c2)c1F
unit-spec: µM
IC50: 1.56

1 = CCCS(=O)(=O)Nc1ccc(F)c(C(=O)Nc2cnc3[nH]c(-c4ccc(S(C)(=O)=O)cc4)nc3c2)c1F
2 = CCCS(=O)(=O)Nc1ccc(F)c(C(=O)Nc2cnc3[nH]c(-c4cccc(OC)c4)nc3c2)c1F
3 = CCCS(=O)(=O)Nc1ccc(F)c(C(=O)Nc2cnc3[nH]c(-c4cccc(Cl)c4)nc3c2)c1F
Order these by IC50, descending, and give the full ranking. Answer by listing the labels in the order asked for.
1, 2, 3
(1: 0.728 µM, 2: 0.271 µM, 3: 0.068 µM)
